System: MIA PaCa-2 cells
PROCEDURE_SUMMARY: Cellular viability assay (Cell Titer Fluor)
Type: cell-based
CONDITION_LABEL: Homo sapiens, MIA PaCa-2, 72 h, 72 hours incubation

# COMPOUND, IC50
measured = [
    ("COc1cccc(-c2cc(CNC(=O)c3ccccc3OC(F)(F)F)n[nH]2)c1OC [Compound 114]", "> 10000 nM"),
    ("COc1ccccc1-c1nc(CNC(=O)c2ccc3c(c2)OC(F)(F)O3)n[nH]1 [Compound 120]", "1000 to 10000 nM"),
    ("O=C(NCc1cc(-c2cccs2)[nH]n1)c1ccccc1N1CCCCCC1 [Compound 103]", "< 1000 nM"),
    ("COc1ccc(F)cc1-c1nc(CNC(=O)c2cccc(F)c2OC(F)F)n[nH]1 [Compound 135]", "< 1000 nM"),
    ("COc1ccc(C(F)(F)F)cc1-c1cc(CNC(=O)c2ccccc2OC(F)(F)F)n[nH]1 [Compound 20]", "> 10000 nM"),
    ("O=C(NCc1cc(-c2cccs2)[nH]n1)c1ccccc1N1CCC(F)(F)C1 [Compound 66]", "< 1000 nM"),
    ("COc1ccccc1-c1cc(CNC(=O)c2ccccc2N2CCCC2)n[nH]1 [Compound 105]", "< 1000 nM"),
    ("CCCOc1ccc(F)cc1-c1cc(CNC(=O)c2ccccc2OC(F)(F)F)n[nH]1 [Compound 115]", "> 10000 nM"),
    ("COc1ccccc1-c1cc(CNC(=O)c2cc(F)ccc2N2CCCC2)n[nH]1 [Compound 104]", "< 1000 nM"),
    ("COc1cccnc1-c1nc(CNC(=O)c2ccccc2OC(F)(F)F)n[nH]1 [Compound 34]", "1000 to 10000 nM"),
    ("N#Cc1ccc(N2CCCC2)c(C(=O)NCc2cc(-c3cccs3)[nH]n2)c1 [Compound 84]", "1000 to 10000 nM"),
    ("COc1ccccc1-c1cc(S(=O)(=O)NC(=O)c2ccccc2OC(F)(F)F)n[nH]1 [Compound 122]", "> 10000 nM"),
]
